Tested on: SK-MEL-28 melanoma
EXPERIMENT_NOTES: NCI-60 one-dose screen, 48 h (100 = growth as untreated, 0 = no growth, -100 = all killed)
ASSAY_SETUP: 10 µM unless noted
The panel holds about 83,000 compounds, 20% with a hit somewhere; the sample as a whole holds those more often. Calls of active or inactive are those of the source. The calls were made as follows: active = growth percent below 10; inactive = the rest.
OBSERVATION_TYPE: growth

Record summary for CCc1cc(OC(=O)N2CCN(CCC(C)(COC(C)(C)C)COC(C)(C)C)CC2)ccc1Nc1cc(-c2ccc(-n3cccn3)cc2)[nH]n1 : reported growth = 96.6% (inactive)

Record summary for CCCCCCNC(=O)Oc1ccc(/C(=C(/C)c2ccc(Cl)cc2)c2ccc(OCCN3CCCCCC3)cc2)cc1 : reported growth = 84% (inactive)

Record summary for Fc1cccc(Cl)c1/C=N/Nc1nc(N/N=C/c2c(F)cccc2Cl)nc(N2CCCCC2)n1 : reported growth = 44.9% (inactive)

Record summary for O=C(CSc1nnc(-c2ccc(Cl)cc2)n1-c1ccccc1)Nc1cccc(F)c1 : reported growth = 78% (inactive)

Record summary for O=C(CSc1nc2ccccc2c(=O)n1-c1ccccc1)Nc1ccc(S(=O)(=O)Nc2nccs2)cc1 : reported growth = 76.3% (inactive)

Record summary for COc1cc(-c2nc(-c3ccccc3)[nH]c2-c2ccnc(NCCCNS(=O)(=O)c3cccc(F)c3)n2)ccc1F : reported growth = 100% (inactive)

Record summary for COC(=O)CCSC1=C(C)C(=O)c2ccccc2C1=O : reported growth = 106% (inactive)

Record summary for Cc1ccc([C@H]2c3[nH]c4ccccc4c3C[C@H]3C(=O)N(CCCCCCC(=O)NO)CC(=O)N23)s1 : reported growth = 48.3% (inactive)

Record summary for O=C(Nc1ccc(Cl)c(C(F)(F)F)c1)Nc1ccc2c(ccn2C(=O)c2cccc(F)c2)c1 : reported growth = 46.6% (inactive)

Record summary for O=C(COc1ccc(/C=C2\C(=O)Nc3ccc(Cl)cc32)cc1)Nc1ccc(Cl)cc1 : reported growth = 78.6% (inactive)

Record summary for O=C(CSc1nnc(-c2cccs2)n1-c1ccccc1)Nc1ccccc1F : reported growth = 81.1% (inactive)

Record summary for O=C(CCCCCCN1CC(=O)N2[C@@H](c3cccs3)c3[nH]c4ccccc4c3C[C@H]2C1=O)NO : reported growth = 70.2% (inactive)

Record summary for C[C@H](Nc1ncnc2ccc(-c3cnc(Cl)c(NS(C)(=O)=O)c3)cc12)c1ccccc1 : reported growth = -18.2% (active)

Record summary for Cc1ccc(C)c(NC2=C(Cl)C(=O)c3nc(C)ccc3C2=O)c1 : reported growth = -11.6% (active)

Record summary for COc1ccc([C@H]2C(=O)N(c3cc(OC)c(OC)c(OC)c3)[C@@H]2c2ccc(OC)c(O)c2)cc1 : reported growth = 63.7% (inactive)

Record summary for Cn1cc(-c2nn3cc(-c4ccncc4)nc3s2)c2cc(F)ccc21 : reported growth = 105% (inactive)

Record summary for Cc1csc(/N=C(N)/N=C(\N)c2cccs2)n1 : reported growth = 117% (inactive)

Record summary for CC1=C(C)C(=O)C(Nc2cccc(C(=O)OC(C)(C)C)c2)=CC1=O : reported growth = 96.5% (inactive)

Record summary for COc1ccc(N2CCN(C3=C(Cl)C(=O)c4ncccc4C3=O)CC2)cc1 : reported growth = 78.3% (inactive)

Record summary for O=C(NNc1nc2cc(F)cc(F)c2n2cccc12)c1cccnn1 : reported growth = 23.9% (inactive)

Record summary for CN1CCN(c2ccc(Nc3nc(NCCNS(=O)(=O)c4ccc(Cl)cc4)c4sccc4n3)cc2)CC1 : reported growth = 94.5% (inactive)

Record summary for O=C1[C@@H]2Cc3c([nH]c4ccccc34)[C@@H](c3ccc(Cl)cc3)N2C(=O)CN1C1CCN(Cc2ccccc2)CC1 : reported growth = 88.1% (inactive)

Record summary for N#Cc1nc(-c2ccccc2)oc1N1CCC(C2(C(F)(F)F)N=N2)CC1 : reported growth = 119% (inactive)

Record summary for CC(=O)C1=C(C)NC(NNc2ccccc2)=NC1c1ccc([N+](=O)[O-])cc1 (stereo not drawn) : reported growth = 102% (inactive)

Record summary for N#Cc1c(-c2cccs2)c(C#N)c(=O)n(Cc2nc3ccccc3[nH]2)c1N : reported growth = 110% (inactive)

Record summary for Cc1ccc(-c2csc(N/N=C/c3cccs3)n2)cc1 : reported growth = 102% (inactive)

Record summary for CC(=O)/C(N=Nc1ccc2oc(=O)ccc2c1)=C(\C)O : reported growth = 47.3% (inactive)

Record summary for C/C(=N\NC(=O)/C=C/CC(=O)O)c1nnn(-c2ccc([N+](=O)[O-])cc2)c1C : reported growth = 114% (inactive)

Record summary for COc1ccc(/C=N/N=C(/c2ccccc2)c2ccc3nc(-c4ccc(Cl)cc4)[nH]c3c2)cc1 : reported growth = 88.4% (inactive)

Record summary for CC(=O)OCCCCN1C=C/C(=C\C(=O)n2ccc3ccccc32)c2ccccc21 : reported growth = 111% (inactive)

Record summary for CN1CCN(Cc2ccc(NC(=O)c3cncc(C#Cc4cnc5ccc(OC6CCOCC6)nn45)c3)cc2C(F)(F)F)CC1 : reported growth = -82.5% (active)

Record summary for CC(C)Sc1nc(-c2ccccc2)c(C#N)c(N2CCOCC2)n1 : reported growth = 88.6% (inactive)

Record summary for CC[C@H](CC[C@@H](C)[C@H]1CC[C@H]2[C@@H]3CC(=O)C4=CC(=O)/C(=C/c5ccc([N+](=O)[O-])cc5)C[C@]4(C)[C@H]3CC[C@]12C)C(C)C : reported growth = 104% (inactive)

Record summary for O=C(CSc1nc2ccccc2c(=O)n1-c1ccccc1)N/N=C/c1ccc(Oc2ccc(Br)cc2)cc1 : reported growth = 70.9% (inactive)

Record summary for CCCCN1C(=O)/C(=c2\sc3n(c2=O)C2C(NN=3)N(CC)C(=O)N2CC)c2cccc(C)c21 (stereo not drawn) : reported growth = 68.2% (inactive)

Record summary for O=C(/C=C/C=C/c1csc(Br)n1)NO : reported growth = 102% (inactive)

Record summary for CN(C)S(=O)(=O)c1ccc(-c2nc(C(Cl)Cl)nc3cc(-c4ccccc4)nn23)cc1 : reported growth = -4.08% (active)

Record summary for Clc1ccc2c(N/N=C/c3c[nH]c4ccccc34)ccnc2c1 : reported growth = -92.7% (active)
